# protocol notes: in vivo
# condition context: male, BALB/c, mouse, ip, LD50(7d) (95% confidence limits), MIS single i.p., pretreatment phenytoin
reported metric: LD50 at 7 days (mg/kg)

* COCC(O)Cn1ccnc1[N+](=O)[O-] (stereo not shown) | 1780

----------
# protocol notes: Approximate acute LD50 of single doses of phenobarbitone and phenytoin
# condition context: male, BALB/c, mouse, in vivo
Where a name gives a salt, the structure may show the parent alone.
reported metric: LD50

• O=C1NC(=O)C(c2ccccc2)(c2ccccc2)N1 [phenytoin, 5.5-diphenylhydantoin, sodium salt] = 200 to 240 mg/kg

----------
# protocol notes: in vivo
# condition context: male, BALB/c, mouse, ip, LD50(7d) (95% confidence limits), MIS single i.p., pretreatment saline (control)
reported metric: LD50 at 7 days (mg/kg)

- COCC(O)Cn1ccnc1[N+](=O)[O-] (stereo not shown): 1540
